Entries and their measured median log2 fold change follow.
Target: GABARAP, O95166
Sequence (O95166 whole entry, the tested form may be a part): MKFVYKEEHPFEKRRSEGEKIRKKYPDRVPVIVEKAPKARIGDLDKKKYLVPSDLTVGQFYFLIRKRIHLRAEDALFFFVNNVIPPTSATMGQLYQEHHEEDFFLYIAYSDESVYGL
Test: median log2 fold change of GCK-ALFA target abundance (FLAG IP / Myc IP barcode read proportion) (log2 ratio); each designed protein is fused to an ALFA-tag nanobody in HEK293 cells to bring the named protein to FLAG-tagged glucokinase (GCK); Myc marks an untargeted standard; higher = target protein stabilised (more abundant)
Settings: target protein: 3xFLAG-MCP-GCK-ALFA reporter; HEK293 landing pad (RPLP)
Whole data set: some 4,500 sequences, median “median log2 fold change of GCK-ALFA target abundance (FLAG IP / Myc IP barcode read proportion)” near 0.078, cut for the lowest 2% near -0.6. The sample as a whole holds a higher share of the lowest values than the screen did.
# respond with the number and nothing more

binder: GBRAP_160_4698 (protein) TATAEKLKAFVKEEFEKAKEEIEGESREQRAVILAGTGGEILMELVEDPNATDELEDEVLAIFDDAVATLLANPNLTLEETKALIDEVEAKVLAAIDKHL
median log2 fold change: -0.69

Kindly consider the entry below.
Task item: Name the recorded median log2 fold change of the binder listed here: GBRAP_128_3307 (protein) MDEELLEEARELIERLKEADEEEAAELVREIAELLEKATPEEREEIAELFEEALKELSAEKLDVVADTLRELIPKATPETANVLADLQVEALNLAEEKEE
Reply: 0.0926
